# measured on: CesA6 central cytoplasmic domain (Arabidopsis thaliana)
# Sequence (Q94JQ6 322-868 limits assumed): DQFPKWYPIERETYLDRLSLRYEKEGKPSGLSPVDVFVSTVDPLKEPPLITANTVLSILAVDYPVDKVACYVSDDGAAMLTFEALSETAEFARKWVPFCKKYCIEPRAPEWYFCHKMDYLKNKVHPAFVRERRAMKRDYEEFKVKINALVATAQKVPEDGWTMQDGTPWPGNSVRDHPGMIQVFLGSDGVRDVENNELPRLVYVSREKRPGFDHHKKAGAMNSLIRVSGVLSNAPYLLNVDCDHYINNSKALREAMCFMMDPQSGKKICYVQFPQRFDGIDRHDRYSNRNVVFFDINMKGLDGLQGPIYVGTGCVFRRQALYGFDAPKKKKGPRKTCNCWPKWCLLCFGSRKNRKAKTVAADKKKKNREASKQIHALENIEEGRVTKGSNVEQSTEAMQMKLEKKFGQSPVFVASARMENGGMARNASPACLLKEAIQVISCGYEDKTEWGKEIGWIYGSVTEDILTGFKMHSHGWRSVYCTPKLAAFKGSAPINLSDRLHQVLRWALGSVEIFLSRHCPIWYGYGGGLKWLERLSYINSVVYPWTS
measurement label: Kd (µM)

> print(dat)
                               smiles.data  measurement.label  readout.value
1  COc1ccc(C(=O)NC(=S)NNC(=O)c2ccccc2C)cc1                 Kd           15.4
